Where do these numbers come from? They come from ChEMBL document CHEMBL2029213.

Reported pKi, Proto-oncogene tyrosine-protein kinase Src (Homo sapiens, UniProt P12931).
pKi: −log10 of the molar value.

I'd like to know its pKi. The compound in question is Nc1nc2ccc(C(=O)c3ccccc3)cc2n1CC1CCNCC1
< 5.00

Item: CC(C)n1nc(-c2cc3c(Cl)cccc3[nH]2)c2c(N)ncnc21
5.91

Item: COc1ccc2cc(-c3nn(CC4CCNCC4)c4ncnc(N)c34)ccc2c1
< 4.70

Item: Nc1ncnc2c1c(-c1cnc3ccccc3c1)nn2CC1CCNCC1
< 4.70

Item: CCOc1ccc2cc(-c3nn(CC4CCNCC4)c4ncnc(N)c34)ccc2c1
< 4.70

Item: COc1ccc2cc(-c3nn(C(C)C)c4ncnc(N)c34)ccc2c1
6.11

Item: Nc1nc2ccc(C(=O)c3ccccc3)cc2[nH]1
< 5.00

###

experimental_system: Tyrosine-protein kinase ABL1 (Homo sapiens)
Sequence (P00519 whole entry): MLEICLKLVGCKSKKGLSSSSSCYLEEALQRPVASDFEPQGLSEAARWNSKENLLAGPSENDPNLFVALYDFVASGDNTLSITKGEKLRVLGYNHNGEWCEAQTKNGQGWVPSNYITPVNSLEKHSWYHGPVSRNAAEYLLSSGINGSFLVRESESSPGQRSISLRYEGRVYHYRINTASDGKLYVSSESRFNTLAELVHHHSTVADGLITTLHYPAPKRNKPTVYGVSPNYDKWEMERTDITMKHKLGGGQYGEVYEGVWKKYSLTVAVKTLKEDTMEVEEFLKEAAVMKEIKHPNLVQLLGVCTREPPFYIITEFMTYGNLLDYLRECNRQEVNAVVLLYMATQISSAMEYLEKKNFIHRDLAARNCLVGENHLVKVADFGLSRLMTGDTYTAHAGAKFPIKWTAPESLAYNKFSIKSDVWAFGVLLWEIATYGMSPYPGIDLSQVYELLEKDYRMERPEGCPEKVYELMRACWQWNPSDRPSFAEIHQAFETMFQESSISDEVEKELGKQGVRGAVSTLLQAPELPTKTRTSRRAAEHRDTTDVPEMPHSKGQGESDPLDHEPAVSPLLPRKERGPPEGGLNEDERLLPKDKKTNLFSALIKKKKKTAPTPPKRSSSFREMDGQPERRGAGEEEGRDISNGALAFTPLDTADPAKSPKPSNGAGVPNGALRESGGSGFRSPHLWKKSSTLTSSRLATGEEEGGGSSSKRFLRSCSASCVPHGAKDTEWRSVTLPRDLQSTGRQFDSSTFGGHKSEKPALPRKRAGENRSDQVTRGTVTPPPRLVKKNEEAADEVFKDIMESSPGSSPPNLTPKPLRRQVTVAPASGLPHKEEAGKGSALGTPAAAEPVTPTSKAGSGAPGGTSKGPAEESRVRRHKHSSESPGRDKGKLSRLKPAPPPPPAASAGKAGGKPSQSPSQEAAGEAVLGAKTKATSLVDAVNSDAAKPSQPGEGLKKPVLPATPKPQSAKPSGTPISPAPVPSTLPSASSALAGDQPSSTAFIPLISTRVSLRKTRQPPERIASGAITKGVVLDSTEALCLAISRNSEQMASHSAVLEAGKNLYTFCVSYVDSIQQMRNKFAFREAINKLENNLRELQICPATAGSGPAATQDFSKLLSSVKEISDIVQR
value_kind: Ki

I'd like to know its Ki. The compound in question is CCOc1ccc2cc(-c3nn(CC4CCNCC4)c4ncnc(N)c34)ccc2c1
> 15 µM

Item: Nc1nc2ccc(C(=O)c3ccccc3)cc2n1CC1CCNCC1
> 10 µM

Item: Nc1ncnc2c1c(-c1cnc3ccccc3c1)nn2CC1CCNCC1
> 15 µM
